# Tested on: HIV-1 IIIB (cell-free virus)
# procedure.summary: microbe, parasite or virus in culture
# Assay type: cell-based
# condition.description: Table 8; 2 h incubation, wash, 48 h culture
reported.endpoint: EC50 Cell-free HIV-1 (IIIB)
Could you give the number and then its unit, please?

# annotated cases, reported EC50 Cell-free HIV-1 (IIIB) shown
compound	EC50 Cell-free HIV-1 (IIIB)
CCCCCCCCCCCCCC(=O)NC(CCC(=O)OC[C@H]1O[C@@H](n2cc(C)c(=O)[nH]c2=O)C[C@@H]1F)C(=O)OC[C@@H]1O[C@H](n2ccc(N)nc2=O)CS1 (stereo partly shown)	1.6 µg/mL
CCCCCCCCCCCCCC(=O)OCC(NC(C)=O)C(=O)NCCC(=O)NC(CCC(=O)OC[C@H]1O[C@@H](n2cc(C)c(=O)[nH]c2=O)C[C@@H]1N=[N+]=[N-])C(=O)NCC(=O)O (stereo partly shown)	54.5 µg/mL
CCCCCCCCCCCCCC(=O)NC(CCC(=O)OC[C@H]1O[C@@H](n2cc(C)c(=O)[nH]c2=O)C[C@@H]1N=[N+]=[N-])C(=O)OC[C@@H]1O[C@H](n2ccc(N)nc2=O)CS1 (stereo partly shown)	4.9 µg/mL

Now look at this entry.
response.value for CC(=O)NC(CCC(=O)OC[C@H]1O[C@@H](n2cc(C)c(=O)[nH]c2=O)C[C@@H]1F)C(=O)OC[C@@H]1O[C@H](n2ccc(N)nc2=O)CS1 (stereo partly shown) (field: EC50 Cell-free HIV-1 (IIIB)) = 10.7 µg/mL

The measurements presented in this section are drawn from patent US9296776B2.
